System: Saccharomyces cerevisiae
Assay: protein stability index of tFT-peptide fusion (C-terminal peptide) (PSI (0-1 scale)); higher = more stable (slower turnover)
Conditions: genetic background: wild type; temperature: 30 C
Measured Quantity: protein stability index
Keep it simple and answer with nothing but the number.

| Biopolymer Sequence | Measured Quantity | Recorded Value |
| --- | --- | --- |
| HPTLPSLQVSPS | protein stability index | 0.689 |

Quick one: give measured protein stability index for `EKSGKDKRKNEI`
0.723

Quick one: give measured protein stability index for `GGGGGGKEAVVR`
0.649

Quick one: give measured protein stability index for `RSSPPPRHDPSP`
0.696

Quick one: give measured protein stability index for `AVSPISLSDNIG`
0.664

Quick one: give measured protein stability index for `EVVRTWAVVEGG`
0.646

Quick one: give measured protein stability index for `HPPPPRLPPRPP`
0.63

Quick one: give measured protein stability index for `LMQTGVNNQNTT`
0.72

* * *

Entries and their measured protein stability index follow.
Tested on: Saccharomyces cerevisiae
Assay: protein stability index of tFT-peptide fusion (C-terminal peptide) (PSI (0-1 scale)); higher = more stable (slower turnover)
Details: genetic background: cdc34-1; temperature: 37 C
Keep it simple and answer with nothing but the number.

Below: 3 sequences and their reported protein stability index.
| Biopolymer Sequence | protein stability index |
| --- | --- |
| GGGSASGWRAAA | 0.665 |
| SSGRLRFISRIH | 0.654 |
| EWSRVVRWNWDG | 0.528 |

Now take the following sequence into account.
Quick one: give measured protein stability index for `AISLPVEVLAFS`
0.4

* * *

Tested on: Saccharomyces cerevisiae
Assay: protein stability index of tFT-peptide fusion (C-terminal peptide) (PSI (0-1 scale)); higher = more stable (slower turnover)
Conditions: genetic background: wild type; temperature: 30 C
Entries and their measured protein stability index follow.
Keep it simple and answer with nothing but the number.

Below: 2 sequences and their reported protein stability index.
| Biopolymer Sequence | protein stability index |
| --- | --- |
| KLENESLPNLSG [TRI1 C-terminal 12 aa] | 0.685 |
| FADTRPFDEIYR [ATP23 C-terminal 12 aa] | 0.727 |

Now take the following sequence into account.
Quick one: give measured protein stability index for QFLFTGRQKNYV [ERP2 C-terminal 12 aa]
0.718

* * *

System: Saccharomyces cerevisiae
Assay: protein stability index of tFT-peptide fusion (C-terminal peptide) (PSI (0-1 scale)); higher = more stable (slower turnover)
Details: genetic background: wild type; temperature: 30 C
Entries and their measured protein stability index follow.
Keep it simple and answer with nothing but the number.

Below: 5 sequences and their reported protein stability index.
| Biopolymer Sequence | protein stability index |
| --- | --- |
| EERKIFLKVVKV | 0.463 |
| PSTSCQRLLTLT | 0.639 |
| ALRRKPRPRYPP | 0.621 |
| RHFFRYYLDHPS | 0.617 |
| WRMRCGLIIGLV | 0.183 |

Quick one: give measured protein stability index for `RPRPPLASPSPP`
0.7

Quick one: give measured protein stability index for `REWVAGGGVVGV`
0.679

Quick one: give measured protein stability index for `QIPEYGGQGVNV`
0.693

Quick one: give measured protein stability index for `GELVLVMYGIWV`
0.351

Quick one: give measured protein stability index for `IFYCPPVPTFPL`
0.697

Quick one: give measured protein stability index for `FTSLCLLFLFSL`
0.616

Quick one: give measured protein stability index for `GVSVSPVVHFFL`
0.73

Quick one: give measured protein stability index for `PPPPPPPRPLTP`
0.68

Quick one: give measured protein stability index for `SPPPRATLPRPP`
0.689

Quick one: give measured protein stability index for `GPPRTRRRSARG`
0.668

Quick one: give measured protein stability index for `VTTTWTWTVRLC`
0.15

Quick one: give measured protein stability index for `TRSAFPSFPTRS`
0.68

Quick one: give measured protein stability index for `PLPKARRHHSPA`
0.653

Quick one: give measured protein stability index for `GPYDLVSAPCLG`
0.753

* * *

System: Saccharomyces cerevisiae
Assay: protein stability index of tFT-peptide fusion (C-terminal peptide) (PSI (0-1 scale)); higher = more stable (slower turnover)
Details: genetic background: das1 deletion; temperature: 30 C
Entries and their measured protein stability index follow.
Keep it simple and answer with nothing but the number.

| Biopolymer Sequence | Measured Quantity | Recorded Value |
| --- | --- | --- |
| SENRFELAYFTS [YLR317W C-terminal 12 aa] | protein stability index | 0.728 |

Quick one: give measured protein stability index for NYESVEVPAANN [YML018C C-terminal 12 aa]
0.682

Quick one: give measured protein stability index for FGDNSKHKTDKI [BOI2 C-terminal 12 aa]
0.712

Quick one: give measured protein stability index for LFVEETNDIGYK [TRE2 C-terminal 12 aa]
0.736

Quick one: give measured protein stability index for AGHSNTLQVSTV [CDC19 C-terminal 12 aa]
0.705

Quick one: give measured protein stability index for LTTSVLCCVVFT [CNE1 C-terminal 12 aa]
0.348

Quick one: give measured protein stability index for YFLAERERINNH [PEX4 C-terminal 12 aa]
0.721

Quick one: give measured protein stability index for ESAKQRRDKQKN [ATG38 C-terminal 12 aa]
0.71

Quick one: give measured protein stability index for GAAVGGALAFLI [DDR2 C-terminal 12 aa]
0.702

Quick one: give measured protein stability index for TLEDLGAKVSLE [MNP1 C-terminal 12 aa]
0.696

* * *

Entries and their measured protein stability index follow.
Test system: Saccharomyces cerevisiae
Assay: protein stability index of tFT-peptide fusion (C-terminal peptide) (PSI (0-1 scale)); higher = more stable (slower turnover)
Details: genetic background: wild type; temperature: 30 C
Keep it simple and answer with nothing but the number.

| Biopolymer Sequence | Study System | protein stability index |
| --- | --- | --- |
| VWPLAFFLRFFI | Saccharomyces cerevisiae | 0.233 |

Quick one: give measured protein stability index for `WRVFRPSLRLFA`
0.33

Quick one: give measured protein stability index for `NFTDMGRSLYIN`
0.208

Quick one: give measured protein stability index for `STVGAWGRVGEG`
0.438

Quick one: give measured protein stability index for `HVLGSIYWAIFV`
0.314

* * *

System: Saccharomyces cerevisiae
Test: protein stability index of tFT-peptide fusion (C-terminal peptide) (PSI (0-1 scale)); higher = more stable (slower turnover)
Settings: genetic background: wild type; temperature: 30 C
Entries and their measured protein stability index follow.
Keep it simple and answer with nothing but the number.

| Biopolymer Sequence | Recorded Value |
| --- | --- |
| YKQVSSHNSHSQ [CUP2 C-terminal 12 aa] | 0.691 |
| PDMIEELDLHED [GPD1 C-terminal 12 aa] | 0.749 |
| KGLQTVVVEEDA [RPL31A C-terminal 12 aa] | 0.683 |
| NKLLDKESVSED [YLR046C C-terminal 12 aa] | 0.711 |
| DDDGDYFEHDEL [KAR2 C-terminal 12 aa] | 0.668 |
| NKHDLHLRPETY [YAR010C C-terminal 12 aa] | 0.678 |

Quick one: give measured protein stability index for KDSIKLLDKARL [MSS2 C-terminal 12 aa]
0.781

Quick one: give measured protein stability index for YISKAGSYEVRY [APM4 C-terminal 12 aa]
0.666

Quick one: give measured protein stability index for DKSTFGLSPVKI [GRS2 C-terminal 12 aa]
0.666

Quick one: give measured protein stability index for IQVVKSKVLNIE [YDR248C C-terminal 12 aa]
0.653

Quick one: give measured protein stability index for KILVFDKNLMNR [YLR154W-E C-terminal 12 aa]
0.688

Quick one: give measured protein stability index for SQLLNLLQDLDT [ENV7 C-terminal 12 aa]
0.722

Quick one: give measured protein stability index for FIFYSILPTNVI [YPR123C C-terminal 12 aa]
0.645

Quick one: give measured protein stability index for NCEPIATTFRAN [MGL2 C-terminal 12 aa]
0.681

Quick one: give measured protein stability index for DTVPPEKLMKFV [RAX2 C-terminal 12 aa]
0.66

Quick one: give measured protein stability index for TNQASPHHIFRG [ORA1 C-terminal 12 aa]
0.752

Quick one: give measured protein stability index for DIEINDDLNGVL [VPS41 C-terminal 12 aa]
0.708

Quick one: give measured protein stability index for KRKRRKVRARSK [RPL41A C-terminal 12 aa]
0.764

Quick one: give measured protein stability index for QLENKLEILKQK [SPC19 C-terminal 12 aa]
0.726

* * *

Test system: Saccharomyces cerevisiae
Assay: protein stability index of tFT-peptide fusion (C-terminal peptide) (PSI (0-1 scale)); higher = more stable (slower turnover)
Settings: genetic background: das1 deletion; temperature: 30 C
Please enter condition met where protein stability index is greater than or equal to 0.7, and condition not met where it is lower.

Some solved cases for reference:
| Biopolymer Sequence | Classification |
| --- | --- |
| PFNRNVSDKLKK [VAC14 C-terminal 12 aa] | condition met |
| ADMTKEFERESS [GLN1 C-terminal 12 aa] | condition met |
| WLDCTTLPNYQG [KAP122 C-terminal 12 aa] | condition met |
| SILTHSTSPDSR [HYM1 C-terminal 12 aa] | condition met |

Note: attention shifts to another entry.
Threshold query (protein stability index >= 0.7) on RRGDMCDVKENI [PUS7 C-terminal 12 aa]
condition not met
